Consider the following molecules and their measured cytotoxicity at 70.5 h readings.
- method.notes: Human HepG2 cell viability assay in 384 well format
- Assay type: toxicity, cell-based
- Design: dose 125 nL, time 70.5 hour; concentration not given beside the values
- test.parameters: HepG2 cells, read-out: Inhibition
measured.property: cytotoxicity at 70.5 h (%)

molecule | measured.property | unit.spec | reading
CCc1n[nH]c(C2CN(C(=O)c3ncoc3CC)CCO2)n1 (stereo unspecified) | cytotoxicity at 70.5 h | % | -13.4
O=C(c1cocn1)N1CCC[C@]2(C[C@@H](Oc3ncccc3F)CO2)C1 | cytotoxicity at 70.5 h | % | -5.09
O=c1[nH]nc2n1CCN(S(=O)(=O)c1ccccc1Cl)C2 | cytotoxicity at 70.5 h | % | -7.03
CCN(Cc1cnn(C)c1)C(=O)c1ccc(C)c(N2CCNC2=O)c1 | cytotoxicity at 70.5 h | % | -17.2
CN(CC(=O)N1CCc2[nH]c3ccc(F)cc3c2C1)CC1OCCO1 | cytotoxicity at 70.5 h | % | 3.34
CN1CCN(C(=O)c2n[nH]c3c2CN(C2CCOC2)CC3)CC1 (stereo unspecified) | cytotoxicity at 70.5 h | % | -10.2
Cn1c(C2CCCN2C(=O)c2cn(CCN)nn2)nc2ccccc21 (stereo unspecified) | cytotoxicity at 70.5 h | % | -15.7
CC(C)N1CCN(C(=O)Cc2csc(-c3ccco3)n2)CC1 | cytotoxicity at 70.5 h | % | -0.696
Cc1ncc2c(n1)CN(CC1CCCCO1)CC2 (stereo unspecified) | cytotoxicity at 70.5 h | % | 5.6
Cc1ccccc1C(C#N)NC(=O)c1cccc2c1OCCO2 (stereo unspecified) | cytotoxicity at 70.5 h | % | 11
Cc1nc(CNCc2cccc(OC34CCCN(CC3)C4)c2)n[nH]1 (stereo unspecified) | cytotoxicity at 70.5 h | % | -3.22
